System: GH3-TRE-Luc cell line
condition-info: read-out: AC50 (uM) modified / 1000; Tox21_110001=Tox21_202395; viability, 1 nM T3 present, 24 h
test-readout: CC50

smiles_string=COC(=O)[C@H]1[C@H]2C[C@@H]3c4[nH]c5cc(OC)ccc5c4CCN3C[C@H]2C[C@@H](OC(=O)c2cc(OC)c(OC)c(OC)c2)[C@@H]1OC reading="22.9 µM"

---

# reported CC50 at 24 h; entries follow
assay-details: in vitro
condition-info: rat, gh3-tre-luc cells, AC50 (uM) modified / 1000
test-readout: CC50 at 24 h

compound="C=C1C[C@@]23CC[C@H]4[C@@](C)(CCC[C@@]4(C)C(=O)O[C@@H]4O[C@H](CO)[C@@H](O)[C@H](O)[C@H]4O)[C@@H]2CC[C@]1(O[C@@H]1O[C@H](CO)[C@@H](O)[C@H](O)[C@H]1O[C@@H]1O[C@H](CO)[C@@H](O)[C@H](O[C@@H]2O[C@H](CO)[C@@H](O)[C@H](O)[C@H]2O)[C@H]1O)C3 [Rebaudioside A]" test_readout="CC50 at 24 h" reading="> 90 µM"
compound=c1ccc2cc3c(ccc4ccccc43)cc2c1 test_readout="CC50 at 24 h" reading="> 90 µM"
compound="COc1ccc(C(=O)c2ccccc2)c(O)c1 [2-Hydroxy-4-methoxybenzophenone]" test_readout="CC50 at 24 h" reading="> 50 µM"
compound="O=C(O)c1ccccc1O [Sodium salicylate]" test_readout="CC50 at 24 h" reading="> 90 µM"
compound="C=C(C)C(=O)OCCCCCCOC(=O)C(=C)C [1,6-Hexanediol dimethacrylate]" test_readout="CC50 at 24 h" reading="> 90 µM"
compound=CCCc1cc(=O)[nH]c(=S)[nH]1 test_readout="CC50 at 24 h" reading="> 90 µM"
compound=O=C(NC(=O)c1c(F)cccc1F)Nc1cc(Cl)c(F)c(Cl)c1F test_readout="CC50 at 24 h" reading="> 80 µM"
compound=SCCCCCCCCS test_readout="CC50 at 24 h" reading="> 90 µM"

---

Test system: thyroid hormone receptor (endogenous TRα and TRβ)
assay-details: GH3-TRE-Ag primary qHTS, luciferase reporter, agonist mode (TOX21_TR_LUC_GH3_Agonist, aeid 803)
Format: cell-based, rat
test-readout: activity in GH3-TRE agonist assay

smiles_string=N[C@@H](Cc1cc(I)c(O)c(I)c1)C(=O)O reading="completely inactive"
smiles_string=NC(CO)(CO)CO reading="completely inactive"

---

# reported CC50 at 24 h; entries follow
assay-details: in vitro
condition-info: rat, gh3-tre-luc cells, AC50 (uM) modified / 1000
Where a name gives a salt, the structure may show the parent alone.
test-readout: CC50 at 24 h

compound=CS(=O)(=O)OCCCCOS(C)(=O)=O reading="> 90 µM"
compound="CC(=O)Nc1c(I)c(C(=O)O)c(I)c(N(C)C(C)=O)c1I [Metrizoate sodium]" reading="> 50 µM"
compound=O=C(O)c1cccc([N+](=O)[O-])c1 reading="> 90 µM"
compound=Nc1c(Cl)c(Cl)nc(C(=O)O)c1Cl reading="> 100 µM"
compound="O=C(NCC(O)CO)c1c(I)c(C(=O)NCC(O)CO)c(I)c(N(CCO)C(=O)CO)c1I (stereo not drawn)" reading="> 20 µM"
compound="CCNCC(O)c1cccc(O)c1 (stereo not drawn) [Etilefrine hydrochloride]" reading="> 20 µM"
compound=O=[N+]([O-])c1cccc(Cl)c1Cl reading="> 90 µM"
compound=CN(C)c1ccc(N(C)C)cc1 reading="58.6 µM"
compound="Cc1nc(-c2ccc3c(c2)CCN(CCC2CCC(NC(=O)/C=C/c4ccc(F)cc4)CC2)CC3)no1 (stereo not drawn) [SB413217A]" reading="8.41 µM"

From: paper PMC6792352
